ASSAY SUMMARY: Cytotoxicity against human MT4 cells after 96 hrs by MTT assay
Type: cell-based
Would you kindly list CC50 at 96 h for each of these molecules?

>>> value("COc1ccc(-c2nc3cc(C(C)=O)ccc3[nH]2)cc1")
"24 µM"
>>> value("C/C(=N\\NC(N)=S)c1ccc2[nH]c(-c3ccccc3)nc2c1")
"≥ 100 µM"
>>> value("CC(=O)c1ccc2[nH]c(C3CCCCC3)nc2c1")
"> 100 µM"
>>> value("COc1ccc(-c2nc3cc(C(C)O)ccc3[nH]2)c(OC)c1 (centres undefined)")
"≥ 100 µM"
>>> value("COc1ccc(-c2nc3cc(/C(C)=N/O)ccc3[nH]2)c(OC)c1")
"≥ 100 µM"
>>> value("C/C(=N\\NC(N)=S)c1ccc2[nH]c(-c3ccc(C(F)(F)F)cc3)nc2c1")
"2 µM"

Each of the following entries comes with a recorded value; kindly state CC50 at 96 h for each.
1. C/C(=N\NC(N)=S)c1ccc2c(c1)nc(-c1ccc(Cl)cc1)n2C1CCCCC1
2. COc1ccc(-c2nc3cc(C(C)=O)ccc3n2C2CCCCC2)cc1
3. C/C(=N\O)c1ccc2[nH]c(-c3ccc(Cl)cc3)nc2c1
4. CC(=O)c1ccc2c(c1)nc(-c1ccc(C(F)(F)F)cc1)n2C1CCCCC1

17 µM
27 µM
20 µM
41 µM

Each of the following entries comes with a recorded value; kindly state CC50 at 96 h for each.
1. C/C(=N\NC(N)=S)c1ccc2c(c1)nc(-c1ccccn1)n2C1CCCCC1
2. CC(=O)c1ccc2c(c1)nc(-c1ccoc1)n2C1CCCCC1

["23 µM", "63 µM"]

Each of the following entries comes with a recorded value; kindly state CC50 at 96 h for each.
1. C/C(=N\NC(N)=S)c1ccc2c(c1)nc(-c1ccc(C(F)(F)F)cc1)n2C1CCCCC1
2. C/C(=N\NC(N)=S)c1ccc2[nH]c(C3CCCCC3)nc2c1
3. COc1ccc(-c2nc3cc(C(C)O)ccc3[nH]2)c(OC)c1OC (centres undefined)
4. COc1ccc(-c2nc3cc(/C(C)=N/NC(N)=S)ccc3[nH]2)cc1

1: 30 µM; 2: 48 µM; 3: 79 µM; 4: 5 µM

Each of the following entries comes with a recorded value; kindly state CC50 at 96 h for each.
1. CC(=O)c1ccc2c(c1)nc(-c1ccc(Cl)cc1)n2C1CCCCC1
2. COc1ccc(-c2nc3cc(/C(C)=N/NC(N)=S)ccc3n2C2CCCCC2)c(OC)c1
3. COc1ccc(-c2nc3cc(/C(C)=N/NC(N)=S)ccc3n2C2CCCCC2)cc1

1. 58 µM
2. 17 µM
3. 39 µM

Each of the following entries comes with a recorded value; kindly state CC50 at 96 h for each.
1. CC(=O)c1ccc2c(c1)nc(-c1ccccn1)n2C1CCCCC1
2. COc1ccc(-c2nc3cc(C(C)=O)ccc3[nH]2)c(OC)c1
3. COc1ccc(-c2nc3cc(/C(C)=N/NC(N)=O)ccc3n2C2CCCCC2)c(OC)c1
4. COc1ccc(-c2nc3cc(C(C)=O)ccc3n2C2CCCCC2)c(OC)c1
5. COc1ccc(-c2nc3cc(/C(C)=N/NC(N)=O)ccc3[nH]2)c(OC)c1
6. COc1ccc(-c2nc3cc(/C(C)=N/NC(N)=S)ccc3[nH]2)c(OC)c1

1: 70 µM; 2: 50 µM; 3: 23 µM; 4: 21 µM; 5: 21 µM; 6: 72 µM

Each of the following entries comes with a recorded value; kindly state CC50 at 96 h for each.
1. COc1ccc(-c2nc3cc(C(C)O)ccc3[nH]2)cc1 (centres undefined)
2. C/C(=N\NC(N)=S)c1ccc2[nH]c(-c3ccc(Cl)cc3)nc2c1
3. C/C(=N\NC(N)=S)c1ccc2c(c1)nc(-c1ccoc1)n2C1CCCCC1

1. ≥ 100 µM
2. 2 µM
3. 21 µM

Each of the following entries comes with a recorded value; kindly state CC50 at 96 h for each.
1. COc1ccc(-c2nc3cc(/C(C)=N/O)ccc3[nH]2)c(OC)c1OC
2. C/C(=N\NC(N)=S)c1ccc2c(c1)nc(-c1ccccc1)n2C1CCCCC1
3. CC(=O)c1ccc2[nH]c(-c3ccoc3)nc2c1
4. C/C(=N\NC(N)=S)c1ccc2[nH]c(-c3ccoc3)nc2c1

51 µM
20 µM
> 100 µM
86 µM

Each of the following entries comes with a recorded value; kindly state CC50 at 96 h for each.
1. COc1ccc(-c2nc3cc(C(C)=O)ccc3[nH]2)c(OC)c1OC
2. CC(=O)c1ccc2c(c1)nc(-c1ccccc1)n2C1CCCCC1

["> 100 µM", "37 µM"]

====

ASSAY SUMMARY: Cytotoxicity against BHK21 cells by MTT assay
Format: cell-based, Mesocricetus auratus
RECORDED CONDITIONS: hamster, BHK-21 cells
Would you kindly list CC50 for each of these compounds?
Numbers only, in µM.

>>> value("C/C(=N\\NC(N)=S)c1ccc2c(c1)nc(-c1ccccc1)n2C1CCCCC1")
38

Each of the following entries comes with a recorded value; kindly state CC50 for each.
1. COc1ccc(-c2nc3cc(/C(C)=N/NC(N)=O)ccc3n2C2CCCCC2)c(OC)c1
2. CC(=O)c1ccc2c(c1)nc(-c1ccc(C(F)(F)F)cc1)n2C1CCCCC1

1. 19
2. 33

Each of the following entries comes with a recorded value; kindly state CC50 for each.
1. COc1ccc(-c2nc3cc(/C(C)=N/NC(N)=S)ccc3[nH]2)c(OC)c1
2. CC(=O)c1ccc2c(c1)nc(-c1ccccc1)n2C1CCCCC1
3. C/C(=N\NC(N)=S)c1ccc2[nH]c(-c3ccc(C(F)(F)F)cc3)nc2c1

[28, 100, 5]

Each of the following entries comes with a recorded value; kindly state CC50 for each.
1. COc1ccc(-c2nc3cc(C(C)=O)ccc3[nH]2)c(OC)c1
2. COc1ccc(-c2nc3cc(C(C)=O)ccc3n2C2CCCCC2)c(OC)c1

[50, 8.5]

====

Test system: Coxsackievirus B5
ASSAY SUMMARY: Antiviral activity against Coxsackie virus type B5 Ohio-1 ATCC VR-29 infected in african green monkey Vero-76 cells assessed as reduction in viral plaque after 3 days by crystal violet staining
Assay type: functional, organism-based
RECORDED CONDITIONS: Enterovirus B, Ohio-1 ATCC VR-29, Vero 76, 72 h
pEC50: −log10 of the molar value.
Would you kindly list pEC50 for each of these molecules?

>>> value("C/C(=N\\NC(N)=O)c1ccc2c(c1)nc(-c1ccc(C(F)(F)F)cc1)n2C1CCCCC1")
"< 4.00"
>>> value("C/C(=N\\NC(N)=S)c1ccc2c(c1)nc(-c1ccccn1)n2C1CCCCC1")
"< 4.70"
>>> value("CC(=O)c1ccc2[nH]c(-c3ccoc3)nc2c1")
"< 4.00"
>>> value("C/C(=N\\NC(N)=S)c1ccc2[nH]c(-c3ccc(Cl)cc3)nc2c1")
"< 4.00"
>>> value("COc1ccc(-c2nc3cc(C(C)O)ccc3[nH]2)cc1 (configuration not stated)")
"< 4.00"

Each of the following entries comes with a recorded value; kindly state pEC50 for each.
1. COc1ccc(-c2nc3cc(/C(C)=N/O)ccc3[nH]2)c(OC)c1OC
2. C/C(=N\NC(N)=S)c1ccc2c(c1)nc(-c1ccc(C(F)(F)F)cc1)n2C1CCCCC1
3. CC(=O)c1ccc2c(c1)nc(-c1ccc(C(F)(F)F)cc1)n2C1CCCCC1
4. COc1ccc(-c2nc3cc(C(C)=O)ccc3n2C2CCCCC2)c(OC)c1

1. < 4.00
2. < 4.00
3. < 4.46
4. < 4.15

Each of the following entries comes with a recorded value; kindly state pEC50 for each.
1. C/C(=N\NC(N)=S)c1ccc2c(c1)nc(-c1ccc(Cl)cc1)n2C1CCCCC1
2. C/C(=N\NC(N)=O)c1ccc2c(c1)nc(-c1ccccn1)n2C1CCCCC1
3. COc1ccc(-c2nc3cc(/C(C)=N/NC(N)=S)ccc3n2C2CCCCC2)c(OC)c1
4. COc1ccc(-c2nc3cc(/C(C)=N/NC(N)=O)ccc3[nH]2)c(OC)c1
5. C/C(=N\NC(N)=S)c1ccc2[nH]c(C3CCCCC3)nc2c1
6. CC(=O)c1ccc2c(c1)nc(-c1ccccc1)n2C1CCCCC1
7. CC(=O)c1ccc2[nH]c(C3CCCCC3)nc2c1
8. COc1ccc(-c2nc3cc(C(C)=O)ccc3[nH]2)c(OC)c1

["< 4.00", "< 4.00", "< 4.70", "< 4.10", "< 4.00", "< 4.10", 4.33, "< 4.00"]

====

ASSAY SUMMARY: Cytotoxicity against african green monkey Vero 76 cells after 48 to 96 hrs by MTT assay
Type: cell-based
RECORDED CONDITIONS: chlorocebus sabaeus
MEASURED ATTRIBUTE: CC50

Some solved entries appear below for comparison.
>>> value("Nc1nc2c(ncn2COCCO)c(=O)[nH]1")
"> 100 µM"
>>> value("CC(=O)c1ccc2[nH]c(C3CCCCC3)nc2c1")
"> 100 µM"
>>> value("C#C[C@@]1(O)[C@H](O)[C@@H](CO)O[C@H]1n1ccc(N)nc1=O")
"> 100 µM"
>>> value("C/C(=N\\NC(N)=S)c1ccc2[nH]c(-c3ccc(Cl)cc3)nc2c1")
"> 100 µM"
>>> value("COc1ccc(-c2nc3cc(C(C)O)ccc3[nH]2)c(OC)c1 (configuration not stated)")
"> 100 µM"

Each of the following entries comes with a recorded value; kindly state CC50 for each.
1. C/C(=N\NC(N)=O)c1ccc2[nH]c(C3CCCCC3)nc2c1
2. C/C(=N\NC(N)=O)c1ccc2[nH]c(-c3ccc(Cl)cc3)nc2c1
3. C/C(=N\NC(N)=S)c1ccc2c(c1)nc(-c1ccc(Cl)cc1)n2C1CCCCC1
4. COc1ccc(-c2nc3cc(/C(C)=N/O)ccc3[nH]2)cc1

["> 100 µM", "> 100 µM", "> 100 µM", "> 100 µM"]

Each of the following entries comes with a recorded value; kindly state CC50 for each.
1. COc1ccc(-c2nc3cc(/C(C)=N/NC(N)=O)ccc3n2C2CCCCC2)c(OC)c1
2. COc1ccc(-c2nc3cc(/C(C)=N/O)ccc3[nH]2)c(OC)c1

20 µM
> 100 µM
